- target_under_test: Amine oxidase [flavin-containing] B (Rattus norvegicus, UniProt P19643)
- measurement_protocol: Ex-Vivo Time course of evaluation for the percentage inhibition of MAO-B for 48 hr at single dose 5 mg/kg through oral gavage
- Format: organism-based
- Design: dose 5 mg/kg, route oral
reported_property: inhibition at 5 mg/kg (%)
Number only, in %; omit the unit.

Reference set, count: 5
INSERT INTO assay_data (structure_smiles, measured_number) VALUES
  ('N#CCCn1nc(-c2ccc(OCc3ccccc3)cc2)oc1=S', 8),
  ('COc1cccc(COc2ccc(-c3nn(CCC#N)c(=O)o3)cc2)c1', -7),
  ('N#CCCn1nc(-c2ccc(OCc3cccc(Cl)c3)cc2)oc1=O', 4),
  ('N#CCCn1nc(-c2ccc(OCc3ccccc3)cc2)sc1=O', 9),
  ('N#CCCn1nc(-c2ccc(OCc3ccc(Cl)cc3)cc2)oc1=O', 6);

inhibition at 5 mg/kg lookup needed for N#CCCn1nc(-c2ccc(OCc3ccccc3)cc2)sc1=S , thanks. 10

Request: N#CCCN1N=C(c2ccc(OCc3ccccc3)cc2)OCC1=O 16

# repeat for Cc1ccc(COc2ccc(-c3nn(CCC#N)c(=O)o3)cc2)cc1 1

Cool, now Cc1cccc(COc2ccc(-c3nn(CCC#N)c(=O)o3)cc2)c1 -3

Lookup N#CCCN1N=C(c2ccc(OCc3ccccc3)cc2)OCC1=S 9

* * *

- target_under_test: Amine oxidase [flavin-containing] B (Rattus norvegicus, UniProt P19643)
- Sequence (P19643 whole entry): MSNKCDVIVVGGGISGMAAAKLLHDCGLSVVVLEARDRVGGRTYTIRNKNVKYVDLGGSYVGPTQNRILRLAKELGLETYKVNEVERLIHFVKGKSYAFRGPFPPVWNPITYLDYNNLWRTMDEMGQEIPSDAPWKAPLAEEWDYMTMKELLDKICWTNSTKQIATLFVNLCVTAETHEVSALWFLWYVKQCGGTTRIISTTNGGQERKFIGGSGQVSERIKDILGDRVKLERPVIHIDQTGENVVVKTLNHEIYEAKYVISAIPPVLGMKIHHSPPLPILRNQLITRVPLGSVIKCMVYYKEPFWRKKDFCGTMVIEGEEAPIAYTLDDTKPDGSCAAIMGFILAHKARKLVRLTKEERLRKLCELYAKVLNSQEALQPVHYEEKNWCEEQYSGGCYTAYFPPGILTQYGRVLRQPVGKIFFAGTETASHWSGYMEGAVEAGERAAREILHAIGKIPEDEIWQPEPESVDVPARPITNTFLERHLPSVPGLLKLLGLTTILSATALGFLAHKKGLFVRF
- measurement_protocol: Compound was evaluated for the time-dependence inhibition of MAO-B at 0 minute pre-incubation periods
Below, each entry is listed with its recorded pIC50.
The meaning of pIC50 here: minus log10 of the concentration in molar units.

INSERT INTO results (structure_smiles, measured_number) VALUES
  ('N#CCCn1nc(-c2ccc(OCc3ccccc3)cc2)oc1=O', 7.60),
  ('O=c1oc(-c2ccc(OCc3ccccc3)cc2)nn1CCO', 7.48);

Quick check: pIC50 of N#CCCn1nc(-c2ccc(OCc3ccccc3)cc2)oc1=S ? 7.33

* * *

- target_under_test: Amine oxidase [flavin-containing] B (Rattus norvegicus, UniProt P19643)
- measurement_protocol: Ex-Vivo Time course of evaluation for the percentage inhibition of MAO-B for 4 hr at single dose 5 mg/kg through oral gavage
- Assay type: organism-based
- Set-up: dose 5 mg/kg, route oral
reported_property: inhibition at 5 mg/kg (%)
Supply the numeric figure in %, leaving out any unit text.

Example cases with answers are listed next.
INSERT INTO measurements (structure_smiles, target_under_test, measured_number) VALUES
  ('N#CCCn1nc(-c2ccc(OCc3ccccc3)cc2)sc1=O', 'Amine oxidase [flavin-containing] B (Rattus norvegicus, UniProt P19643)', 45),
  ('O=c1oc(-c2ccc(OCc3ccccc3)cc2)nn1CCO', 'Amine oxidase [flavin-containing] B (Rattus norvegicus, UniProt P19643)', 70),
  ('N#CCCn1nc(-c2ccc(OCc3ccccc3)cc2)oc1=S', 'Amine oxidase [flavin-containing] B (Rattus norvegicus, UniProt P19643)', 74),
  ('N#CCCN1N=C(c2ccc(OCc3ccccc3)cc2)OCC1=O', 'Amine oxidase [flavin-containing] B (Rattus norvegicus, UniProt P19643)', 22);

I would be grateful if you could share the reported inhibition at 5 mg/kg for N#CCCN1N=C(c2ccc(OCc3ccccc3)cc2)OCC1=S . 5

Same question, Cc1cccc(COc2ccc(-c3nn(CCC#N)c(=O)o3)cc2)c1 this time 15

Then this molecule: COc1cccc(COc2ccc(-c3nn(CCC#N)c(=O)o3)cc2)c1 6

Field entry: N#CCCn1nc(-c2ccc(OCc3ccccc3)cc2)sc1=S 8

Taken from ChEMBL document CHEMBL1126975.
